- Test system: phospho-p90 RSK (RSK1 Thr359/Ser363) in A375 (Braf V600E) cells
- Measurement notes: Phospho-p90 RSK ELISA using A375 (Braf V600E) cells
- Assay type: cell-based
- Condition description: Homo sapiens, A-375, 2 hours compound treatment, read-out: Cellular Phospho-p90RSK IC50
IC50: recorded values

Example entries begin here.
INSERT INTO results (compound, data_value) VALUES
  ('Cc1cc(-c2n[nH]c3cc4c(cc23)CN(C(C)C2CCCC2)C(=O)N4)ccn1 (stereo not shown) [Example 294]', '≤ 250 nM'),
  ('O=C1Nc2cc3[nH]nc(-c4ccnnc4)c3cc2CN1Cc1cc(F)cc(F)c1 [Example 127]', '250 to 1000 nM'),
  ('COc1cc(-c2n[nH]c3cc4c(cc23)CN(Cc2ccc(F)c(Cl)c2)C(=O)N4)ccn1 [Example 38]', '250 to 1000 nM');

Alright, here's another compound for you.
The compound listed as Cc1cc(-c2n[nH]c3cc4c(cc23)CN(CCNCc2ccccc2)C(=O)N4)ccn1 [Example 149] shows IC50 equal to 250 to 1000 nM
